# target: CFTR (Homo sapiens, UniProt P13569)
# Sequence (P13569 with tags, fused parts or gaps DEL508-508): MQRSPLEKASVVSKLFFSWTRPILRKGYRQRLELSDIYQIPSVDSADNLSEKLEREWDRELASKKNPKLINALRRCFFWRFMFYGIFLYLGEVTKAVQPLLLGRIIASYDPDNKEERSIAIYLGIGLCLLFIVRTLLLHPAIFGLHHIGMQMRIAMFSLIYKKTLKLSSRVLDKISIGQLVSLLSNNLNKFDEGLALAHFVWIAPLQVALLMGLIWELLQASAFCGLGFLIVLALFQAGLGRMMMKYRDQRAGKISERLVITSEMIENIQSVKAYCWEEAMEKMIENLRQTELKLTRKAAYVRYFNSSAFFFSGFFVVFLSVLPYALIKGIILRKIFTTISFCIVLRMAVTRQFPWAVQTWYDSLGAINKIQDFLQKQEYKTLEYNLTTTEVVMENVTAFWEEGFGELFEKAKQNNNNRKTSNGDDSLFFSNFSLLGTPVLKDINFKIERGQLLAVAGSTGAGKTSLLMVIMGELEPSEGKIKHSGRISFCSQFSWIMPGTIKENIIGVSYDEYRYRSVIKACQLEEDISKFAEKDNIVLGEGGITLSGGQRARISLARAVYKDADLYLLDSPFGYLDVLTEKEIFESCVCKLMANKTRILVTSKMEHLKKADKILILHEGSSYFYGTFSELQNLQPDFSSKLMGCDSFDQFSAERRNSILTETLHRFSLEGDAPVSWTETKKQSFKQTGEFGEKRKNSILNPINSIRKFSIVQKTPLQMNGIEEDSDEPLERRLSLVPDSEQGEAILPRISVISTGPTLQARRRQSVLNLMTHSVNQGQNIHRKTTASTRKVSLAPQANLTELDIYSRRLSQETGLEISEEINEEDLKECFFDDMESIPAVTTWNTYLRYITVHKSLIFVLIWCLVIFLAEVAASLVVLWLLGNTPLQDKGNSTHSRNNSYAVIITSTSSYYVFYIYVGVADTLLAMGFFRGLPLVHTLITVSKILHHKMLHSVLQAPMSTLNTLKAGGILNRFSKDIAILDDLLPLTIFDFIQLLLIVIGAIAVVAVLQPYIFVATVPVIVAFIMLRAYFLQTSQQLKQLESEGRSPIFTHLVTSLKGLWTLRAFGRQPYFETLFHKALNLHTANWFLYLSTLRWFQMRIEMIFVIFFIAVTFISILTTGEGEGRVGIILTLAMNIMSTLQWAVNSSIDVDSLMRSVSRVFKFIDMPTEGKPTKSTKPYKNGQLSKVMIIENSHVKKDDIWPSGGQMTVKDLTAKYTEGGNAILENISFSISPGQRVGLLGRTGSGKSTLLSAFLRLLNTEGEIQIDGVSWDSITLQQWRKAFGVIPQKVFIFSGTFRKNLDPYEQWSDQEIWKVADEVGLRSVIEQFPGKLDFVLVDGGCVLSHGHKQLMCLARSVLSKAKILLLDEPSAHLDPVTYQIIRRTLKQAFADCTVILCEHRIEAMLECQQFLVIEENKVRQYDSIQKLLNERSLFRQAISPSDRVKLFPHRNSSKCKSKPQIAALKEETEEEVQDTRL
# assayRemarks: Membrane Potential Dye, Enteroid Assay A
# Format: cell-based
# conditionLabel: read-out: Ent. A EC50
readout: EC50

{"compound": "COC(=O)N1CCC2(CC1)CC(N1C(=O)c3cccc(c3)S(=O)(=O)Nc3nc(cc(C4CCCCC4(C)C)n3)OC[C@H]1CC(C)C)C2 (stereo partly drawn) [Compound 395]", "target": "CFTR (Homo sapiens, UniProt P13569)", "EC50": "< 1000 nM"}

Exercise: Entry COC(=O)N1CCC2(CC(N3C(=O)c4cccc(c4)S(=O)(=O)Nc4nc(cc(-c5c(C)cccc5C)n4)OC[C@H]3CC(C)C)C2)C1 (stereo partly drawn) [Compound 328] : reported EC50 = ?
Key: < 1000 nM

Exercise: Entry CNC(=O)[C@H]1CC2(C1)C[C@H](N1C(=O)c3cccc(c3)S(=O)(=O)Nc3nc(cc(-c4c(C)cccc4C)n3)OC[C@H]1CC(C)C)C2 (stereo in doubt) [Compound 347] : reported EC50 = ?
Key: < 1000 nM

====

Here the recorded pEC50 is given for each entry.
# target: CFTR (Homo sapiens, UniProt P13569)
# assayRemarks: Membrane Potential Dye, Enteroid Assay B
# Type: cell-based
# conditionLabel: Table 10, read-out: Ent. B EC50
pEC50: −log10 of the molar value.

{"compound": "[H][C@]1(N2C(=O)c3cccc(c3)S(=O)(=O)Nc3nc(cc(-c4c(C)cccc4C)n3)OC[C@H]2CCC(C)C)C[C@@]2(C[C@H](C(C)(C)O)C2)C1 (single isomer, unassigned) [Compound 4]", "target": "CFTR (Homo sapiens, UniProt P13569)", "pEC50": "> 6.00"}

Exercise: Entry Cc1cccc(C)c1-c1cc2nc(n1)NS(=O)(=O)c1cccc(c1)C(=O)N(C1CC3(C1)CC(O)(CC(C)C)C3)[C@H](CC(C)(C)C)CO2 (stereo in doubt) [Compound 404] : reported pEC50 = ?
Key: > 6.00

Exercise: Entry [H][C@]1(N2C(=O)c3cccc(c3)S(=O)(=O)Nc3nc(cc(-c4c(C)cccc4C)n3)OC[C@H]2CC(C)(C)C)C[C@@]2(C[C@H](NC(=O)OC3CC3)C2)C1 (stereo in doubt) : reported pEC50 = ?
Key: > 6.00

Exercise: Entry Cc1cccc(C)c1-c1cc2nc(n1)NS(=O)(=O)c1cccc(c1)C(=O)N([C@H]1C[C@@H](N3CCOC3=O)C1)[C@H](CC(C)(C)C)CO2 (single isomer, unassigned) [Compound 167] : reported pEC50 = ?
Key: > 6.00

Exercise: Entry Cc1cccc(C)c1-c1cc2nc(n1)NS(=O)(=O)c1cccc(c1)C(=O)N(C1CC(C)(OC(F)(F)F)C1)[C@H](CC(C)(C)C)CO2 (single isomer, unassigned) : reported pEC50 = ?
Key: > 6.00

Exercise: Entry Cc1cccc(C)c1-c1cc2nc(n1)NS(=O)(=O)c1cccc(c1)C(=O)N(C1CC3(CCNC(=O)C3)C1)[C@H](CC(C)C)CO2 (stereo partly shown) [Compound 200] : reported pEC50 = ?
Key: > 6.00

Exercise: Entry Cc1cccc(C)c1-c1cc2nc(n1)NS(=O)(=O)c1cccc(c1)C(=O)N(C1CC3(CC(C(N)=O)C3)C1)[C@H](CC(C)(C)C)CO2 (stereo partly shown) [Compound 232] : reported pEC50 = ?
Key: > 6.00

Exercise: Entry CCC(=O)NC1(C)CC(N2C(=O)c3cccc(c3)S(=O)(=O)Nc3nc(cc(-c4c(C)cccc4C)n3)OC[C@H]2CC(C)(C)C)C1 (stereo partly shown) : reported pEC50 = ?
Key: > 6.00

Exercise: Entry Cc1cccc(C)c1-c1cc2nc(n1)NS(=O)(=O)c1cccc(c1)C(=O)N(C1CC(CO)(C(C)(C)O)C1)[C@H](CC(C)(C)C)CO2 (single isomer, unassigned) [Compound 159] : reported pEC50 = ?
Key: > 6.00

Exercise: Entry Cc1cccc(C)c1-c1cc2nc(n1)NS(=O)(=O)c1cccc(c1)C(=O)N([C@@H]1CC[C@@H]1C1CC1)[C@H](CC(C)(C)C)CO2 (racemic) [Compound 149] : reported pEC50 = ?
Key: > 6.00
